System: BDF1 mice, P388 leukemia ip, median survival T/C
Test: NCI In Vivo Anticancer Drug Screen. Data for tumor model P388 Leukemia (intraperitoneal) in B6D2F1 (BDF1) mice
Conditions: endpoint: median survival time; dose: 100.0 mg/kg/injection; schedule: Q04DX003 (ip); vehicle: saline with Tween-80
Toxic doses and inconclusive results are not listed. Rule for the calls: active = survival T/C of 150% or more; inactive = T/C below 125% in these data. Residues, ends and D or L forms follow the SMILES beside them. *: point of attachment. Bn = c1ccc(C*)cc1; For = O=C*
Outcomes: Y for active, N for inactive

> print(dat)
                                    compound  assigned.class
 1  CC(=O)OCC(OC(C)=O)C(OC(C)=O)C(OC(C)=O)C(C#N)OC(C)=O (stereo not drawn)               N
 2  CC1(c2cccs2)C(=O)NC(=O)N1C(=O)CCl (stereo not drawn)               N
 3  CCCCCC(=O)O[C@]1(C(C)=O)CC[C@H]2[C@@H]3CCC4=CC(=O)CC[C@]4(C)[C@H]3CC[C@@]21C               N
 4  Nc1nc(N)c2nc(CNc3ccc(C(=O)NC(CC(=O)O)C(=O)O)cc3)cnc2n1 (stereo not drawn)               N
 5  N#CN(Cc1ccc(Cl)cc1Cl)C(=O)OCOc1ccc(Cl)cc1               N
 6  O=C1C(=C(C(F)(F)F)C(F)(F)F)CCc2ccc([N+](=O)[O-])cc21               N
 7       CCCC(O)C1CCCCC1O (stereo not drawn)               N
 8  CCN(CC)CC(C)Nc1ccc([N+](=O)[O-])c2sc3ccccc3c(=O)c12 (stereo not drawn)               Y
 9                       S=c1cc(-c2ccco2)ss1               N
10  COC(=O)c1cc(C)n(C)c(=O)c1CNS(=O)(=O)c1ccccc1               N
11  Cc1cc(C)c(C#N)c([S][Sn]([Cl])([Cl])[S]c2nc(C)cc(C)c2C#N)n1               N
12                      CCOC(=O)C[n+]1ccccc1               N
13     COc1cc(OC)c(OC)cc1/C=C/c1ccc2ccccc2n1               N
14                    CCCC(C)(C)SSC(C)(C)CCC               N
15  N#CCCC(C#N)(CCC#N)c1ccc([N+](=O)[O-])cc1               N
16  CC(=O)Nc1ccc2c(c1)C[N+](C)(C1CCCCC1)CO2 (stereo not drawn)               N
17                                CCSC(=O)CC               N
18                CC1(NC(=O)N(CCCl)N=O)CCCC1               Y
19                O=S(=O)(NC1CCCCC1)c1ccccc1               N
20  C[C@@H]1CN(C(=O)CCOS(C)(=O)=O)[C@@H](C)CN1C(=O)CCOS(C)(=O)=O               Y
21  Cc1cc([N+](=O)[O-])c2ccccc2c1N(CC(=O)O)S(=O)(=O)c1ccccc1               N
22  N=C(N)c1ccc(C(=O)Oc2ccc([N+](=O)[O-])cc2)cc1               N
23  CCC/C(=N\Nc1ccc([N+](=O)[O-])cc1[N+](=O)[O-])c1ccccc1               N
24  CC(=O)N1C(=O)NC(=O)C1(C)c1cccs1 (stereo not drawn)               N
25  c1ccc(Sc2c(Sc3ccccc3)c(Sc3ccccc3)c(Sc3ccccc3)c(Sc3ccccc3)c2Sc2ccccc2)cc1               N
26   C#CC(C)OCC1CNC(=S)O1 (stereo not drawn)               N
27  CC(C)CC(NC(=O)C(Cc1ccc(OCc2ccccc2)cc1)NC=O)C(=O)O (stereo not drawn) (For-Tyr(Bn)-Leu-OH; configuration not given here)               N
28             COc1ccc2ccccc2c1/C=N/N1CCCCC1               N
29     COC(OC)c1cc(=O)[nH]c(NC(=O)C(Cl)Cl)n1               N
30    COC(=O)c1c(Cl)c(Cl)c(C(=O)OC)c(Cl)c1Cl               N
31  CC(C)C(Br)C(=O)NCC(=O)NCC(=O)O (stereo not drawn)               N
32           CCc1c(C(OC)OC)[nH]c(=S)[nH]c1=O               N
33  C=CN1C(=O)N(C=C)C(C)(CC(C)C)C1=O (stereo not drawn)               N

Where these numbers come from: PubChem BioAssay AID328
